studySystem: Cytochrome P450 1A2 (Homo sapiens, UniProt P05177)
Sequence (P05177 whole entry): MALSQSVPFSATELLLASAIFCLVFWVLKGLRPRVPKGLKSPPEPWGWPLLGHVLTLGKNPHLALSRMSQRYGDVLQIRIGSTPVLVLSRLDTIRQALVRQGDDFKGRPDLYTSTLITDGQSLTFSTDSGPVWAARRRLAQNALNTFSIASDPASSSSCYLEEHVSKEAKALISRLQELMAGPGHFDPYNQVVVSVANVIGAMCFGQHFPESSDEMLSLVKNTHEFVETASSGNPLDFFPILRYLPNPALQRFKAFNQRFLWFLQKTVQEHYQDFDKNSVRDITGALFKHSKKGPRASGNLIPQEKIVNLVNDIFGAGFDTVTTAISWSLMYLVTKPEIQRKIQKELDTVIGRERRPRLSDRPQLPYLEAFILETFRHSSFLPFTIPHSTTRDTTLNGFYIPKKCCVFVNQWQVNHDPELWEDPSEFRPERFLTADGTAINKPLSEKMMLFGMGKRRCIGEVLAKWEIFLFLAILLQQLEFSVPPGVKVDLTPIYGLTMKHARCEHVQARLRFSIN
assayProcedure: Inhibition of human recombinant CYP1A2
Attribute: IC50
Give the value in µM but do not write µM after it.

COc1ccc(-c2sc(/N=C/c3ccc(-c4ccccc4)cc3)c(C#N)c2C)cc1OC    26

Now look at this entry.
Input: Look up IC50 for this compound: COc1ccc(-c2sc(/N=C/c3ccc(N(C)CCC#N)cc3)c(C#N)c2C)cc1OC
Output: 11.9
